Parameter: Inhibition. Scope: all listed entries.
Test system: Klebsiella pneumoniae
Conditions: Concentration 20 uM; ASSAY_TEST Inhibition of Bacterial Growth; detection method Absorption (OD600); MEDIA CAMHB; plate type 384well; NBS; CORNING #3640; time 18 hr
Measured potencies and affinities stand elsewhere.
The response must be a number in % with no trailing unit.

Molecule: CNCCCCOc1ccccc1Cc1ccccc1.Cl
Units Label: %
Measured: 18.69
//
Molecule: OC[C@H]1O[C@@H](Oc2cc(O)cc(/C=C/c3ccc(O)cc3)c2)[C@H](O)[C@@H](O)[C@@H]1O
Units Label: %
Measured: 6.92
//
Molecule: CC(=O)O[C@]1(C(C)=O)CC[C@H]2[C@@H]3C[C@H](C)C4=CC(=O)CC[C@]4(C)[C@H]3CC[C@@]21C [MEDROXYPROGESTERONE ACETATE]
Units Label: %
Measured: 17.28

Requested field: Inhibition. Item: CC(=O)OCC(=O)[C@@]1(O)CC[C@H]2[C@@H]3C[C@H](C)C4=CC(=O)C=C[C@]4(C)[C@H]3[C@@H](O)C[C@@]21C [METHYLPREDNISOLONE ACETATE]
10.69

Try `CCCCC(=O)N(Cc1ccc(-c2ccccc2-c2nnn[nH]2)cc1)[C@H](C(=O)O)C(C)C` next.
7.53

// same read-out, input: `C[C@@H]1CN(CCCn2c3ccccc3c3ccccc32)C[C@H](C)N1.Cl.O`
-0.67

Continue with `COc1ccc2c(c1)c(CC(=O)O)c(C)n2C(=O)c1ccc(Cl)cc1.O`
8.34

Okay, and `CCCCC[C@H](O)/C=C/[C@H]1[C@H](O)CC(=O)[C@@H]1CCCCCCC(=O)O` ?
7.2

Same again, this time with CCc1nn(CCCN2CCN(c3cccc(Cl)c3)CC2)c(=O)n1CCOc1ccccc1.Cl [NEFAZODONE HYDROCHLORIDE]
1.06

What would you report for `Cc1nc2ccccn2c(=O)c1CCN1CCC(C(=O)c2ccc(F)cc2)CC1` ?
8.87

And the next one, CC(CCCCC(=O)Nc1ccc(C(F)(F)F)cc1)NCCc1c[nH]cn1.O=C(O)/C=C\C(=O)O.O=C(O)/C=C\C(=O)O (configuration not stated) ?
6.44

Repeat for the following molecule: CCC[C@@H]1C[C@@H](C(=O)N[C@@H]([C@H]2O[C@H](SC)[C@H](O)[C@@H](O)[C@H]2O)[C@@H](C)O)N(C)C1.Cl.O [LINCOMYCIN HYDROCHLORIDE]
17.37

Cool, now `COc1cc(C(=O)NS(=O)(=O)c2ccccc2C)ccc1Cc1cn(C)c2ccc(NC(=O)OC3CCCC3)cc12`
3.3

// repeat for Cc1cccc(Nc2ccncc2S(=O)(=O)NC(=O)NC(C)C)c1 [TORSEMIDE] and report
8.97

---

System: Klebsiella pneumoniae
Conditions: Concentration 20 uM; ASSAY_TEST Inhibition of Bacterial Growth; detection method Absorption (OD600); MEDIA CAMHB; plate type 384well; NBS; CORNING #3640; time 18 hr
Results with a measured potency or affinity are listed apart.
Assign labels as follows, please: Satisfied for Inhibition below 10%; Not satisfied for Inhibition equal to or exceeding 10%.

Before answering, review these 6 worked examples.
Molecule: Cc1[nH]cnc1CN1CCc2c(c3ccccc3n2C)C1=O.Cl [ALOSETRON HYDROCHLORIDE]
Category: Not satisfied
--
Molecule: CN1CCC(=C2c3ccccc3CCc3sccc32)CC1.O=C(O)/C=C\C(=O)O
Category: Not satisfied
--
Molecule: Cl.O[C@@H](c1cc(C(F)(F)F)nc2c(C(F)(F)F)cccc12)[C@H]1CCCCN1
Category: Not satisfied
--
Molecule: COc1cc(C)nc(-n2nc(C)cc2OC)n1 [EPIRIZOLE]
Category: Not satisfied
--
Molecule: CC(COc1ccccc1Cc1ccccc1)N1CCCCC1.O=P(O)(O)O (stereo unspecified)
Category: Not satisfied
--
Molecule: CC(C)c1ccc2oc3nc(N)c(C(=O)O)cc3c(=O)c2c1
Category: Satisfied

Find out if reported Inhibition for `C[C@]12C=CC(=O)C=C1CC[C@@H]1[C@@H]2C(=O)C[C@@]2(C)[C@H]1CC[C@]2(O)C(=O)CO` is less than 10%
Not satisfied

Next record, please: CN(CCOc1ccc(CC2SC(=O)NC2=O)cc1)c1ccccn1.O=C(O)/C=C\C(=O)O (stereo unspecified) [ROSIGLITAZONE MALEATE]
Satisfied

What do you have for `Nc1nc(N)c2nc(-c3ccccc3)c(N)nc2n1` ?
Satisfied

Param item: C[C@]12CCC(=O)C=C1CC[C@@H]1[C@@H]2[C@@H](O)C[C@@]2(C)[C@H]1CC[C@]2(O)C(=O)CO [HYDROCORTISONE]
Satisfied

// repeat for `CCC(C)(C)C(=O)O[C@H]1C[C@@H](C)C=C2C=C[C@H](C)[C@H](CC[C@@H]3C[C@@H](O)CC(=O)O3)[C@H]21` and report
Satisfied

Lookup CCN(CC)C(=O)[C@]1(c2ccccc2)C[C@@H]1CN.Cl [1R,2S-MILNACIPRAN HYDROCHLORIDE]
Not satisfied

How about this molecule: C[C@]12CC[C@@H]3c4ccc(OS(=O)(=O)[O-])cc4CC[C@H]3[C@@H]1CCC2=O.[Na+] [ESTRONE SODIUM SULFATE]
Satisfied

Likewise for Cc1ncc([N+](=O)[O-])n1CC(O)CCl (stereo unspecified) ?
Not satisfied

Record: `CC(=O)CCCCn1c(=O)c2c(ncn2C)n(C)c1=O`
Not satisfied
